Kindly supply the reported Activity values for the records listed here.
Test system: Rattus norvegicus
Assay: Antihypertensive activity determined as percent fall in blood pressure after 2 hr in spontaneously hypertensive rats administered with 10 mg/kg (po)
Type: functional
Numbers only, in %.

COc1cc2nc(N(C)CCN(C)C(=O)c3ccco3)nc(N)c2cc1OC.Cl
0
COc1cc2nc(N(C)CCCN(C)C(=O)c3cc(OC)c(OC)c(OC)c3)nc(N)c2cc1OC.Cl
-11
COc1cc(OC)cc(C(=O)N(C)CCCN(C)c2nc(N)c3cc(OC)c(OC)cc3n2)c1.Cl
-6
COc1cccc(C(=O)N(C)CCCN(C)c2nc(N)c3cc(OC)c(OC)cc3n2)c1.Cl
-12

--- query ---
Lookup: Could you share which Activity value was measured for COc1cc2nc(NCCCN(C)C(=O)C3CCCO3)nc(N)c2cc1OC.Cl (stereo not given) ?
Found: -8

Just for reference, ChEMBL document CHEMBL1123205 is where these values come from.
